Assay: P. falciparum Dd2 growth inhibitors, dose response, SYBR Green, cherry-picked samples (AID 1159567)
Format: functional, cell-based
The source made the active and inactive calls. Rule as the data show it: actives have a measured AC50 and inactives only a lower limit.
Endpoint label: AC50

Supply measured AC50 of `COc1ccccc1S(=O)(=O)N(C)C[C@@H]1Oc2cc(C#CCC(C)C)ccc2S(=O)(=O)N([C@@H](C)CO)C[C@@H]1C` in your reply.
3.17 µM (active)

# return recorded AC50 for entry `O=C(c1ccc2c(c1)OCO2)N1CC(=O)N2[C@H](CO)[C@H](c3ccc(C#Cc4ccccc4)cc3)[C@H]2C1`
2.52 µM (active)

State its AC50 for this molecule: `COc1ccc(NC(=O)N(C)C[C@@H]2Oc3cc(-c4ccc(C)cc4)ccc3S(=O)(=O)N([C@H](C)CO)C[C@H]2C)cc1`
3.38 µM (active)

Respond only with AC50 recorded for `CO[C@@H]1CN(C)C(=O)c2ccc(NC(=O)c3ccc4c(c3)OCO4)cc2OC[C@@H](C)N(Cc2ccc3c(c2)OCO3)C[C@H]1C`
1.11 µM (active)
